Data provenance is ChEMBL document CHEMBL3351353.

Items are presented alongside their recorded solubility thermodynamic at 48 h.
Experiment: Thermodynamic solubility of the compound in phosphate buffer at pH 7.2 to 7.4 at 1 mg after 48 hrs by shake flask method
Format: physicochemical
Settings: read-out: Therm_solubility

# mol, solubility thermodynamic at 48 h
data = [
    ("CCCOc1ccc(C[C@@H](Cc2ccccc2)C(=O)O)cc1CNC(=O)c1ccc(N2CCCCCCC2)cc1", "< 10 µg/mL"),
    ("CCCOc1ccc(C[C@@H](Cc2ccccc2)C(=O)O)cc1CNC(=O)c1ccc(N2C3CCCC2CCC3)cc1", "< 10 µg/mL"),
    ("CCCOc1ccc(C[C@@H](Cc2ccccc2)C(=O)O)cc1CNC(=O)c1ccc(C23CC4CC(CC(C4)C2)C3)cc1", "< 1 µg/mL"),
]

From here, focus on the item given below.
GET /value?item= CCCOc1ccc(C[C@@H](Cc2ccccc2)C(=O)O)cc1CNC(=O)c1ccc(N2CC3CCC(C3)C2)cc1 &field=solubility thermodynamic at 48 h returns 10 µg/mL
